System: Human B Lymphocyte cell line, SU-DHL-8
experimental.protocol: Relative cell viability CCK-8, SU-DHL-8
Assay type: cell-based
measurement.setup: 30 μM; 48 hours; untreated (DMSO) = 100%
In plain terms, low Relative cell viability (%), SU-DHL-8, meaning strictly below 2%, gives y, and everything else gives n.

INSERT INTO results (molecule, tested_system, assigned_class) VALUES
  ('Nc1ncccc1C(=O)NCCCCCCCCCCCCN1CC=CC1', 'Human B Lymphocyte cell line, SU-DHL-8', 'n'),
  ('Nc1ncccc1C(=O)NCCCCCCCCCCCCN1CCC(Oc2ccncc2)CC1', 'Human B Lymphocyte cell line, SU-DHL-8', 'y'),
  ('Cc1ccc(C2CCN(CCCCCCCCCCCCNC(=O)c3cccnc3N)CC2)cc1', 'Human B Lymphocyte cell line, SU-DHL-8', 'y'),
  ('Nc1ncccc1C(=O)NCCCCCCCCCCCCN1CC(F)(F)C1', 'Human B Lymphocyte cell line, SU-DHL-8', 'n'),
  ('CC1CCCN(CCCCCCCCCCCCNC(=O)c2cccnc2N)CC1 (stereo not shown)', 'Human B Lymphocyte cell line, SU-DHL-8', 'n'),
  ('Nc1ncccc1C(=O)NCCCCCCCCCCCCN1CCN(CCO)CC1', 'Human B Lymphocyte cell line, SU-DHL-8', 'n'),
  ('CC(C)(C)OC(=O)N[C@H]1CCN(CCCCCCCCCCCCNC(=O)c2cccnc2N)C1', 'Human B Lymphocyte cell line, SU-DHL-8', 'n'),
  ('Cl.Nc1ncccc1C(=O)NCCCCCCCCCCCCF', 'Human B Lymphocyte cell line, SU-DHL-8', 'y'),
  ('Nc1ncccc1C(=O)NCCCCCCCCCCCCN1CCS(=O)(=O)CC1', 'Human B Lymphocyte cell line, SU-DHL-8', 'y'),
  ('CC1(C)CCN(CCCCCCCCCCCCNC(=O)c2cccnc2N)C1', 'Human B Lymphocyte cell line, SU-DHL-8', 'n'),
  ('CC1CN(C)C(CCCCCCCCCCCCNc2ccc3cncnc3n2)N1 (stereo not shown)', 'Human B Lymphocyte cell line, SU-DHL-8', 'n'),
  ('C[C@H]1CNCCN1CCCCCCCCCCCCNC(=O)c1cccnc1N.Cl', 'Human B Lymphocyte cell line, SU-DHL-8', 'n'),
  ('Nc1ncccc1C(=O)NCCCCCCCCCCCCN1CCC(F)C1 (stereo not shown)', 'Human B Lymphocyte cell line, SU-DHL-8', 'y'),
  ('CC1(C)CN(CCCCCCCCCCCCC(=O)Nc2nc(N)c3[nH]cnc3n2)CCO1', 'Human B Lymphocyte cell line, SU-DHL-8', 'n'),
  ('Cl.O=C(NCCCCCCCCCCCCN1CCNCC1)c1ccc(-c2ccccc2)o1', 'Human B Lymphocyte cell line, SU-DHL-8', 'n'),
  ('Cl.Nc1ncccc1C(=O)NCCCCCCCCCCCCN1CC[C@H](N)C1', 'Human B Lymphocyte cell line, SU-DHL-8', 'n');
